target: HTRA1, Q92743; assay: holdup assay; set-up: key: below the threshold = too weak to quantify, mostly under pKd 3.1 to 4; settings: plain residues with an end cap or a label only (N-terminal biotin on a linker: ado-ado)
Sequence (Q92743 360-477): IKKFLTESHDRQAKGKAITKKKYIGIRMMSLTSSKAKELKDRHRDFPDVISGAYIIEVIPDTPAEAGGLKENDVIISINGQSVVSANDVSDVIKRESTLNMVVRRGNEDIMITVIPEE
reported.endpoint: pKd

[
  {
    "binder": "MQILSKPEFI [NPSR1, Q6W5P4]",
    "reported.endpoint": "pKd",
    "reported.result": 4.15
  },
  {
    "binder": "QLKSGRDSTV [TMEM178A, Q8NBL3]",
    "reported.endpoint": "pKd",
    "reported.result": 4.4
  },
  {
    "binder": "SKQFDKNAYV [CLDN10, P78369]",
    "reported.endpoint": "pKd",
    "reported.result": 3.97
  },
  {
    "binder": "FLVTEFNVML [DFNB31, Q9P202]",
    "reported.endpoint": "pKd",
    "reported.result": 4.4
  },
  {
    "binder": "KIEDVEITLV [FCHSD2, O94868]",
    "reported.endpoint": "pKd",
    "reported.result": 5.5
  }
]
